Test system: MEF A1-2A-BIM cells, caspase 3/7 luminescence, 3 h
Test Method Notes: inducers of caspase signal in A1-dependent MEFs – cell-based, luminescence, retest, A1 inhibitor project, dose response (AID 2765)
The source made the active and inactive calls.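 The calls were made as follows: active = half-maximal concentration for the rise in caspase light signal at or below ten times the top tested dose; inconclusive = flat fit between 30% and 70% activity, or unreliable curve fit; inactive = the rest.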
Allowed answers: active, inactive

Query: recorded result category for CC(=O)OCCCNc1cc(Sc2nc3ccccc3s2)c2nonc2c1[N+](=O)[O-] in this test inactive

State the result this test recorded for CCc1nc(N=Nc2c(O)[nH]c3ccccc23)c2c3c(sc2n1)CCC3 . active

// param item: CCC(C)Nc1nnc(SCC(=O)c2c(N)n(C3CC3)c(=O)[nH]c2=O)s1 (stereo unspecified) ; yields the recorded call inactive

What outcome does the record of this test show for O=C(NCCCN1CCCCC1)c1ccc2c(c1)NC(=O)c1ccccc1S2 ? inactive

# lookup: test call for Cc1ccc(C(C(=O)NCc2ccco2)N(C(=O)Cc2cccs2)c2cccnc2)cc1 (stereo unspecified) inactive

---

System: MEF A1-2A-BIM cells, caspase 3/7 luminescence, 3 h
Test Method Notes: inducers of caspase signal in A1-dependent MEFs – cell-based, luminescence, retest, A1 inhibitor project, dose response (AID 2765)
The source made the active and inactive calls.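 How the source made its calls: active means half-maximal concentration for the rise in caspase light signal at or below ten times the top tested dose; inconclusive means flat fit between 30% and 70% activity, or unreliable curve fit; inactive means the rest.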
Outcome (select one): yes (1) = active, no (0) = inactive

Compound	Target Entity	Discrete Label
O=C(Cn1ncc(Cl)c(Cl)c1=O)NCC1CCCCC1	MEF A1-2A-BIM cells, caspase 3/7 luminescence, 3 h	no (0)

Field: outcome | Entry: COCCCn1cc(C(=O)c2cc(OC)ccc2OCC(=O)N2CCCCC2C)cc(C#N)c1=O (stereo unspecified) no (0)

# lookup: test call for Cc1cc(=O)oc2c1c(C)nn2-c1ccc(Cl)cc1 no (0)

Could you check what this test reported for CC(=O)c1ccc(N(C(=O)c2csnn2)C(C(=O)NC(C)(C)C)c2cccs2)cc1 (stereo unspecified) ? no (0)

I'd appreciate the recorded outcome for COc1ccc2[nH]c(=O)c(-c3nnn(-c4ccccc4)n3)cc2c1 from this test. no (0)

I'd appreciate the recorded outcome for O=C(c1c[nH]c2ccccc12)C(Cl)c1ccccc1 (stereo unspecified) from this test. no (0)

Returns: the outcome recorded for CSc1ccc(C(c2c(C)[nH][nH]c2=O)c2c(C)[nH][nH]c2=O)cc1 in this assay. no (0)

Please indicate how the test categorized O=C(Nc1nc2c(Br)cc(Br)cc2c(=O)s1)c1ccco1 . no (0)

Please let me know the test result on file for CC1CCN(CCCNC(=O)c2cn(C)c3ccc(S(=O)(=O)N4CCCC4)cc3c2=O)CC1 . no (0)

What classification did CCc1nnc(NC(=O)CSc2nc(-c3ccccc3)cc(-c3ccc(F)cc3)c2C#N)s1 end up with in this test? yes (1)

Recorded call for CCC(NC(=O)c1cccc(Cn2cc([N+](=O)[O-])cn2)c1)c1ccc(C(C)C)cc1 (stereo unspecified) ? no (0)

Returns: the outcome recorded for CC(=O)c1cccc(CN2CCN(CCc3ccccc3)C(CCO)C2)c1 (stereo unspecified) in this assay. no (0)

// param item: Cc1ccccc1OCCOC(=O)c1c(-c2ccccc2)noc1C ; yields the recorded call no (0)

Hi, sorry to bother you, what did the test record for c1ccc(Cc2nn3c(Cn4nnc5ccccc54)nnc3s2)cc1 ? no (0)

# lookup: test call for CCOC(=O)C(C(=O)OCC)c1cc(Br)c2noc3c2c1C(=O)c1ccccc1-3 no (0)

Look up the recorded call for COc1cc(/C=C(/C#N)c2nc3ccccc3[nH]2)ccc1OCC(=O)Nc1ccccc1C in this test. yes (1)

Would you mind telling me which call this test gave CC1Cc2cc(/C(O)=C3/C(=O)C(=O)N(Cc4cccnc4)C3c3cccc(O)c3)ccc2O1 (stereo unspecified) ? no (0)

Assay result, entry CC1CCN(c2ccc3nnc(CCC(=O)NCc4ccco4)n3n2)CC1 — outcome? no (0)
